system: human prostate cancer cells (PC3); assay: Assessment of cytotoxicity by SRB assay, prostate cancer cells; assay type: cell-based; details: Homo sapiens; PC-3 cells, 72 h, mean±SD
I'd appreciate it if you could supply IC50 values for the items below.
Could you give me the number in µM? Just the number is fine.

Looking up COc1cccc2c1C(=O)c1c(O)c3c(c(O)c1C2=O)C[C@@](O)(C(=O)CO)C[C@@H]3O[C@H]1C[C@H](N)[C@H](O)[C@H](C)O1 [DOX, Doxorubicin, reference compound] , I found its IC50 recorded as 7.5

Lookup result for O=C(O)c1ccccc1C(=O)n1ccnc1 ; measured IC50: 2.67
